Origin of values: PubChem BioAssay

Provide the recorded composite z-score for the entries that follow.
Biological target: Calmodulin-1 (Homo sapiens) (UniProt P0DP23)
Experiment: small molecules binding Ca-loaded calmodulin-1 – biochemical, small-molecule microarray, Cy5-labelled CALM1, plus calcium, artefact control for SMM control-protein annotation, profiling panel (AID 1112);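 note: score merges spot fluorescence with signal to noise from triplicate slides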
Details: Cy5-CALM1 binding fluorescence, higher = more signal
Form: value (number only, do not type unit).

## Task Note down composite z-score recorded for CCOC(=O)C[C@H]1[C@H](OC(=O)c2cc3ccccc3oc2=O)[C@@H](NC(=O)CC(C)C)c2cc(OCCCO)ccc2N1C(=O)c1ccc2ccccc2n1
## Result -0.35

## Task Note down composite z-score recorded for O=c1cccc(-c2ccc([N+](=O)[O-])cc2)o1
## Result -0.389

## Task Note down composite z-score recorded for CCCNC(=O)[C@@H]1c2ccccc2C(=O)N(Cc2ccc(OC(F)(F)F)cc2)[C@H]1c1ccc(CO)cc1
## Result 0.237

## Task Note down composite z-score recorded for COc1cc2c(cc1O)C(c1ccc(CN3CCCC3)cc1)N(Cc1cc3c(cc1Br)OCO3)CC2 (centres undefined)
## Result 0.91

## Task Note down composite z-score recorded for O=C1OCCC/C=C\[C@H]2OC34C=CCN(c5ccc6ccccc6c5)C(=O)[C@H]3N(CCO)C(=O)[C@@H]4C12 (some centres undefined)
## Result 0.903

## Task Note down composite z-score recorded for [N-]=[N+]=Nc1ccccc1C[C@]1(C(=O)NCCN2CCOCC2)COC(c2ccc(OCCCO)cc2)=N1
## Result -0.553

## Task Note down composite z-score recorded for CC(C)[Si](C#CCCCC#N)(O[C@H](c1ccccc1)c1cn(Cc2ccccc2)nn1)C(C)C
## Result -0.458

## Task Note down composite z-score recorded for CC(c1ccccc1)C(O)C1C=CC2C(=O)N(C)C(=O)C2N1Nc1ccccc1 (centres undefined)
## Result 0.735

## Task Note down composite z-score recorded for CC(C)=C1C(=O)C(c2ccccc2)=C2CN3C(=O)N(CCc4ccccc4)C(=O)[C@]3(Cc3ccc(C(F)(F)F)cc3)[C@H]21
## Result 0.953
